System: HL-1
Test: relative cell viability (CellTiter-Glo) vs DMSO control (% of DMSO control); higher = more viable cells
Conditions: oxygen condition: normoxia 72 h; 5000 nM
Counter-ions that a name gives are not always drawn.
Each record here notes measured relative cell viability.
Reply with just the number.

The cases that follow already have their relative cell viability on record.
> print(dat)
                                   molecule        reported.property  number
1  COc1ccc2c(c1)C(=O)N(CCc1ccc(S(=O)(=O)NC(=O)NC3CCCCC3)cc1)C(=O)C2(C)C  relative cell viability     116
2  CCCCN1CCCCC1C(=O)Nc1c(C)cccc1C (stereo not drawn) [Bupivacaine hydrochloride]  relative cell viability     102
3  NC[C@H](O)c1ccc(O)c(O)c1 [Noradrenaline bitartrate monohydrate]  relative cell viability     109
4  CS(=O)(=O)CCNCc1ccc(-c2ccc3ncnc(Nc4ccc(OCc5cccc(F)c5)c(Cl)c4)c3c2)o1 [Lapatinib Ditosylate]  relative cell viability    61.7

# context switch: different molecule, same relative cell viability
# input molecule: O=C(CCCN1CCC(O)(c2ccc(Cl)cc2)CC1)c1ccc(F)cc1 ; wanted: its relative cell viability
98.5

Sourced from the supplement of paper PMC8371130
